Biological target: β-catenin/Tcf4 PPI (Homo sapiens, UniProt P35222)
Sequence (P35222 138-686): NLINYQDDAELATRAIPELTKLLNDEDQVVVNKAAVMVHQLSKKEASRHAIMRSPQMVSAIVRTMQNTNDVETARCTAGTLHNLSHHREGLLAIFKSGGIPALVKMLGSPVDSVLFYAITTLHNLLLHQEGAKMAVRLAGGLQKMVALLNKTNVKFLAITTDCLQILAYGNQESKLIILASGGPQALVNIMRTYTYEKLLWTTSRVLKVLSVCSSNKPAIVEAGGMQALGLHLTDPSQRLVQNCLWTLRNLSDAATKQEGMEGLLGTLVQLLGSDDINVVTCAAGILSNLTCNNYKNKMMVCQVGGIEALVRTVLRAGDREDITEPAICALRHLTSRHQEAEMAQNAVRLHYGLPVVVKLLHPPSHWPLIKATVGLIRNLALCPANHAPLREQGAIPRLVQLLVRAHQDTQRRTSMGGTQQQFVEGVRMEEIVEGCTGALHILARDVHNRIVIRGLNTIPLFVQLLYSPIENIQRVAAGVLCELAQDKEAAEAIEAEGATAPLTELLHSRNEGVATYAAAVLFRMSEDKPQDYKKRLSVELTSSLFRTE
Conditions: read-out: Ki ± SD AlphaScreen; Table 8, resynthesized 18 and derivatives
pKi listing for selected compounds.
Scale: negative log10 of molar concentration, which is what pKi denotes.

compound	system-name	pKi
c1ccc2c(c1)[nH]c1nc3nonc3nc12 [Compound 27]	β-catenin/Tcf4 PPI (Homo sapiens, UniProt P35222)	3.92

API: the following record is the query input.
For the compound shown here, N#CCCCn1c2ccccc2c2nc3nonc3nc21 [Compound 36] , give the reported pKi.
3.92

---

System: HCT116 cells
Experiment: MTs cell viability assay, HCT116
Type: cell-based, human
Details: Homo sapiens, HCT-116; MTs cell viability, 72 h; read-out: IC50 ± SD HCT116
readout-type: IC50 (µM)
Respond numerically; units are µM and should not be typed.

molecule	recorded-number
O=C(O)c1cc2nc(-c3ccc4c(c3)OCO4)c(-c3ccc4c(c3)OCO4)nc2cc1O [Compound 17]	250
COC1=C(C[C@H](C)O)C2c3c(c(O)cc4c3-c3c(cc(O)c5c3C2C(C[C@H](C)O)=C(OC)C5=O)OCO4)C1=O (some centres unmarked) [Compound 2]	1.2
COc1ccc(/C=C2\SC(=S)N(CCCC(=O)O)C2=O)cc1OC [Compound 9, reference compound]	180

For the molecule shown here, O=C(O)c1ccc2nc(-c3ccc(Cl)cc3)c(-c3ccc(Cl)cc3)nc2c1 [Compound 15] , give the reported IC50.
22

The origin of these recorded values is patent US10273246B2.
